Test system: Ramos cells (Burkitt's lymphoma)
assay: Alamar Blue cell proliferation assay (3 days)
Type: cell-based
experimental_parameters: Homo sapiens, 72 h, Table 1B, single agent, 3 days (from Table 1A), read-out: IC50
measure_name: IC50

For reference, reported IC50 for COc1cc([C@@H]2c3cc4c(cc3[C@@H](O[C@@H]3O[C@@H]5CO[C@@H](C)O[C@H]5[C@H](O)[C@H]3O)[C@H]3COC(=O)[C@H]23)OCO4)cc(OC)c1O [Etoposide] stands at < 130 nM

* * *

Test system: Ramos cells (Burkitt's lymphoma)
assay: Alamar Blue cell proliferation assay (3 days)
Assay type: cell-based
experimental_parameters: Homo sapiens, 72 h, Table 1B, single agent, 3 days (from Table 1A)
measure_name: IC50 (µM)
Could you give me the number in µM? Just the number is fine.

For reference, reported IC50 for O=P(NCCCl)(NCCCl)OC1OC(CO)C(O)C(O)C1O [Glufosfamide, α-D-glucosyl-ifosfamide mustard] stands at 180

The reported measurements were obtained from patent US20110182909A1.
